TARGET DESC: von Willebrand factor (VWF) (Homo sapiens, UniProt P04275 P04275:764-2813)
TEST DESCRIPTION: filter; Bmax 86%; 2 mM CaCl2, 37 C
MEASUREMENT CONDITIONS: tags: factor VIII free human purified VWF, Haematologic Technologies Inc; label: 5'-32P
Attribute: Kd

BINDER	Kd
ACGAACUGCCCUCGUAUUAUUUCGACGCACAGACGU (ssRNA, 2'-F G8,C9,C10,C11,A25,C26,G27,C28,A29; rest 2'-OMe; 3' idT) [T89 vrt10]	548 nM

Now for the binder whose Kd we want.
According to the records, this binder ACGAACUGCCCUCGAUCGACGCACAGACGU (ssRNA, 2'-F U7,C9,C10,C11,U12,C20,C22,U30; ribo G8,A19; rest 2'-OMe; 3' idT) [T59 vrt25] displays Kd of 76 nM
